# protocol-details: Dog pharmacokinetic studies
# Format: in vivo, male Beagle dogs
# setup-conditions: male, Beagle, in vivo, PO 1.5 mg/kg
measurement-type: AUC(0-inf) (ng·h/mL)
Give the value in ng·h/mL but do not write ng·h/mL after it.

Q: Quick one: AUC(0-inf) of Cc1ncccc1[C@@H](O)CNC(C)(C)C ?
Result: 537

---

# protocol-details: Monkey pharmacokinetic studies
# Format: in vivo, male Non-Naïve Cynomolgus Monkeys
# setup-conditions: male, cynomolgus monkey, in vivo, PO 0.3 mg/kg, read-out: MRTInf—obs
measurement-type: MRT inf (h)
Kindly answer with a numeric value in h, unit omitted.

Q: Which value of MRT inf has been reported for Cc1ncccc1[C@@H](O)CNC(C)(C)C [Compound 03-115] in the records?
Result: 3.46

Reference source for all entries: patent US10947196B2
